Taken from ChEMBL document CHEMBL1130120.

- assay target: Alpha-1D adrenergic receptor (Rattus norvegicus, UniProt P23944)
- Sequence (P23944 whole entry): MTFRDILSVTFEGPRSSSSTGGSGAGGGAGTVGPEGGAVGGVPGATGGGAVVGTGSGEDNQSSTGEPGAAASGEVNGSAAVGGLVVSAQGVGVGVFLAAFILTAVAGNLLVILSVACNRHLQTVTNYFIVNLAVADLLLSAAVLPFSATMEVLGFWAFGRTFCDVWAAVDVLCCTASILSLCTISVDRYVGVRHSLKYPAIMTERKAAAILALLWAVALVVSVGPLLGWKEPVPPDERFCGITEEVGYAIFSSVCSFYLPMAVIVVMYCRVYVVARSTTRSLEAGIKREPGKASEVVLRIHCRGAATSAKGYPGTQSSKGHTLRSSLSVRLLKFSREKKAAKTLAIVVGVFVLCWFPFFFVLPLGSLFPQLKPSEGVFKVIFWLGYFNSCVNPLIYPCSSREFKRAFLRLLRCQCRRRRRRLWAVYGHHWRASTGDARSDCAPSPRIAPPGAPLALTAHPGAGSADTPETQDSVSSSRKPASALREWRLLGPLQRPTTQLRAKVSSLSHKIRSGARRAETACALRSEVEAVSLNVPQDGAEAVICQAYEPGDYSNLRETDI
- procedure summary: Antagonistic activity against rat aorta for affinity estimates representative of the Alpha-1D adrenergic receptor
- Assay type: functional, tissue-based
- experimental conditions: read-out: pA2 (converted)
Give y when the value for Kb is at least 20 nM. Give n when it is less.

[
  {
    "smiles input": "COc1cc(F)ccc1N1CCN(CCCNc2c(C(=O)N(C)C)cnc3c(C)cccc23)CC1",
    "assay target": "Alpha-1D adrenergic receptor (Rattus norvegicus, UniProt P23944)",
    "class name": "y"
  },
  {
    "smiles input": "Cc1nn(C)c2ncc(C(=O)N(C)C)c(NCCCN3CCN(c4ccccc4OCC(F)(F)F)CC3)c12",
    "assay target": "Alpha-1D adrenergic receptor (Rattus norvegicus, UniProt P23944)",
    "class name": "y"
  },
  {
    "smiles input": "COc1ccccc1N1CCN(CCCNc2ncccc2C(=O)NC(C)(C)C)CC1",
    "assay target": "Alpha-1D adrenergic receptor (Rattus norvegicus, UniProt P23944)",
    "class name": "n"
  },
  {
    "smiles input": "CN(C)C(=O)c1cccnc1N1CCC(NCCOc2ccccc2OCC(F)(F)F)CC1",
    "assay target": "Alpha-1D adrenergic receptor (Rattus norvegicus, UniProt P23944)",
    "class name": "y"
  },
  {
    "smiles input": "COc1ccc(N2CCN(CCCNc3ncccc3C(=O)N(C)C)CC2)c(OC)c1",
    "assay target": "Alpha-1D adrenergic receptor (Rattus norvegicus, UniProt P23944)",
    "class name": "y"
  },
  {
    "smiles input": "COc1ccccc1N1CCN(CCCSc2ccccc2C(=O)N(C)C)CC1",
    "assay target": "Alpha-1D adrenergic receptor (Rattus norvegicus, UniProt P23944)",
    "class name": "n"
  },
  {
    "smiles input": "COc1cc(F)ccc1N1CCN(CCCNc2c(C(=O)N(C)C)cnc3c2nc(C)n3C)CC1",
    "assay target": "Alpha-1D adrenergic receptor (Rattus norvegicus, UniProt P23944)",
    "class name": "y"
  },
  {
    "smiles input": "Cc1ccccc1N1CCN(CCCNc2ncccc2C(=O)N(C)C)CC1",
    "assay target": "Alpha-1D adrenergic receptor (Rattus norvegicus, UniProt P23944)",
    "class name": "n"
  },
  {
    "smiles input": "COc1cc(C)ccc1N1CCN(CCCNc2ncccc2C(=O)N(C)C)CC1",
    "assay target": "Alpha-1D adrenergic receptor (Rattus norvegicus, UniProt P23944)",
    "class name": "y"
  },
  {
    "smiles input": "COc1ccccc1N1CCN(CCCNc2ccccc2C(=O)N(C)C)CC1",
    "assay target": "Alpha-1D adrenergic receptor (Rattus norvegicus, UniProt P23944)",
    "class name": "n"
  }
]
